test.method.notes: Cmax in Sprague-Dawley rat brain at 10 mg/kg, sc
Assay type: ADME, organism-based
Design: dose 10 mg/kg, route subcutaneous
compounds and their reported Cmax

- structure: "Cc1ccccc1C(=O)Nc1ccc(NC(=O)c2ccccn2)cc1Cl"
  endpoint.unit: "ng/g"
  Cmax: 59.4
- structure: "COc1cc(NC(=O)c2ccccn2)ccc1NC(=O)c1ccccc1Cl"
  endpoint.unit: "ng/g"
  Cmax: 69.1
- structure: "O=C(Nc1ccc(NC(=O)c2ccccc2Cl)c(Cl)c1)c1ccccn1"
  endpoint.unit: "ng/g"
  Cmax: 163

----------
test.method.notes: AUC in Sprague-Dawley rat plasma at 10 mg/kg, sc
Assay type: ADME, organism-based
Parameters: dose 10 mg/kg, route subcutaneous

- structure: "O=C(Nc1ccc(NC(=O)c2ccccc2Cl)c(Cl)c1)c1ccccn1"
  AUC(0-t): "658 ng·h/mL"
- structure: "COc1cc(NC(=O)c2ccccn2)ccc1NC(=O)c1ccccc1Cl"
  AUC(0-t): "938 ng·h/mL"
- structure: "Cc1ccccc1C(=O)Nc1ccc(NC(=O)c2ccccn2)cc1Cl"
  AUC(0-t): "766 ng·h/mL"
